The following molecules are shown together with reported S: Solubility values.
assay: Kinetic solubility in water and bio-relevant media (SGF, FaSSIF, FeSSIF) at 37° C.; type: physicochemical; settings: H2O, 37° C., 1 hr; calculated by freeform
Where a name gives a salt, the structure may show the parent alone.
MEASUREMENT_LABEL: S: Solubility (µg/mL)

1) N#Cc1ccc(COc2cccc(C3CCN(Cc4nc5ccc(C(=O)O)cc5n4Cc4cncs4)CC3)n2)c(F)c1 [Freeform Type C]; 20
2) N#Cc1ccc(COc2cccc(C3CCN(Cc4nc5ccc(C(=O)O)cc5n4Cc4cncs4)CC3)n2)c(F)c1 [Potassium salt Type A]; 920
3) N#Cc1ccc(COc2cccc(C3CCN(Cc4nc5ccc(C(=O)O)cc5n4Cc4cncs4)CC3)n2)c(F)c1 [Tris salt Type C]; 460

###

test: Kinetic solubility in water and bio-relevant media (SGF, FaSSIF, FeSSIF) at 37° C.; type: physicochemical; details: FeSSIF, 37° C., 24 hrs; residual solids by XRPD
Counter-ions that a name gives are not always drawn.
MEASUREMENT_LABEL: FC: Form change

1. N#Cc1ccc(COc2cccc(C3CCN(Cc4nc5ccc(C(=O)O)cc5n4Cc4cncs4)CC3)n2)c(F)c1 [Meglumine salt Type A]; Yes
2. N#Cc1ccc(COc2cccc(C3CCN(Cc4nc5ccc(C(=O)O)cc5n4Cc4cncs4)CC3)n2)c(F)c1 [Potassium salt Type A]; Yes
3. N#Cc1ccc(COc2cccc(C3CCN(Cc4nc5ccc(C(=O)O)cc5n4Cc4cncs4)CC3)n2)c(F)c1 [Freeform Type C]; No
4. N#Cc1ccc(COc2cccc(C3CCN(Cc4nc5ccc(C(=O)O)cc5n4Cc4cncs4)CC3)n2)c(F)c1 [Fumarate Type A]; No
5. N#Cc1ccc(COc2cccc(C3CCN(Cc4nc5ccc(C(=O)O)cc5n4Cc4cncs4)CC3)n2)c(F)c1 [Tris salt Type C]; Yes

###

experiment: Kinetic solubility in water and bio-relevant media (SGF, FaSSIF, FeSSIF) at 37° C.; format: physicochemical; conditions: FaSSIF, 37° C., 2 hrs; residual solids by XRPD
Counter-ions that a name gives are not always drawn.
MEASUREMENT_LABEL: FC: Form change

1) N#Cc1ccc(COc2cccc(C3CCN(Cc4nc5ccc(C(=O)O)cc5n4Cc4cncs4)CC3)n2)c(F)c1 [Potassium salt Type A]; No
2) N#Cc1ccc(COc2cccc(C3CCN(Cc4nc5ccc(C(=O)O)cc5n4Cc4cncs4)CC3)n2)c(F)c1 [Fumarate Type A]; No
3) N#Cc1ccc(COc2cccc(C3CCN(Cc4nc5ccc(C(=O)O)cc5n4Cc4cncs4)CC3)n2)c(F)c1 [Freeform Type C]; No
4) N#Cc1ccc(COc2cccc(C3CCN(Cc4nc5ccc(C(=O)O)cc5n4Cc4cncs4)CC3)n2)c(F)c1 [Tris salt Type C]; Yes
5) N#Cc1ccc(COc2cccc(C3CCN(Cc4nc5ccc(C(=O)O)cc5n4Cc4cncs4)CC3)n2)c(F)c1 [Meglumine salt Type A]; Yes

###

test: Solubility of Meglumine salt Type A in SGF and FaSSIF at 37° C. with adjusting pH to that of the blank medium; format: physicochemical; settings: pH 6.5, thermodynamic from solid; FaSSIF, pH adjusted to 6.5, 37° C., 1 hr; read-out: solubility in FaSSIF
Where a name gives a salt, the structure may show the parent alone.
MEASUREMENT_LABEL: solubility at 1 h (µg/mL)

1) N#Cc1ccc(COc2cccc(C3CCN(Cc4nc5ccc(C(=O)O)cc5n4Cc4cncs4)CC3)n2)c(F)c1 [Meglumine salt Type A]; 29

###

assay: Kinetic solubility in water and bio-relevant media (SGF, FaSSIF, FeSSIF) at 37° C.; format: physicochemical; details: all the media (H2O, SGF, FaSSIF, FeSSIF), after 24 hrs
Where a name gives a salt, the structure may show the parent alone.
MEASUREMENT_LABEL: form change of residual solids (XRPD) after solubility test

1) N#Cc1ccc(COc2cccc(C3CCN(Cc4nc5ccc(C(=O)O)cc5n4Cc4cncs4)CC3)n2)c(F)c1 [Meglumine salt Type A]; form change was observed
2) N#Cc1ccc(COc2cccc(C3CCN(Cc4nc5ccc(C(=O)O)cc5n4Cc4cncs4)CC3)n2)c(F)c1 [Potassium salt Type A]; form change was observed
3) N#Cc1ccc(COc2cccc(C3CCN(Cc4nc5ccc(C(=O)O)cc5n4Cc4cncs4)CC3)n2)c(F)c1 [Freeform Type C]; No form change
4) N#Cc1ccc(COc2cccc(C3CCN(Cc4nc5ccc(C(=O)O)cc5n4Cc4cncs4)CC3)n2)c(F)c1 [Tris salt Type C]; form change was observed
5) N#Cc1ccc(COc2cccc(C3CCN(Cc4nc5ccc(C(=O)O)cc5n4Cc4cncs4)CC3)n2)c(F)c1 [Fumarate Type A]; No form change

###

test: Kinetic solubility in water and bio-relevant media (SGF, FaSSIF, FeSSIF) at 37° C.; assay type: physicochemical; conditions: SGF, 37 °C, pH 1.8, simulated gastric fluid, thermodynamic from solid, SGF, 37° C., highest solubility, at 2 hrs; read-out: solubility in SGF
Where a name gives a salt, the structure may show the parent alone.
MEASUREMENT_LABEL: solubility at 2 h

1. N#Cc1ccc(COc2cccc(C3CCN(Cc4nc5ccc(C(=O)O)cc5n4Cc4cncs4)CC3)n2)c(F)c1 [Meglumine salt Type A]; 720 µg/mL

###

test: Approximate solubility in different solvents at RT; format: physicochemical; conditions: MeOH, organic solvent or mixture, thermodynamic from solid, RT
MEASUREMENT_LABEL: solubility

1. N#Cc1ccc(COc2cccc(C3CCN(Cc4nc5ccc(C(=O)O)cc5n4Cc4cncs4)CC3)n2)c(F)c1 [Freeform Type A]; 6.7 to 20 mg/mL

###

assay: Hygroscopicity by DVS at 25° C.; format: physicochemical; settings: DVS, 25° C.
Counter-ions that a name gives are not always drawn.
MEASUREMENT_LABEL: hygroscopicity

1) N#Cc1ccc(COc2cccc(C3CCN(Cc4nc5ccc(C(=O)O)cc5n4Cc4cncs4)CC3)n2)c(F)c1 [Meglumine salt Type A]; slightly hygroscopic
2) N#Cc1ccc(COc2cccc(C3CCN(Cc4nc5ccc(C(=O)O)cc5n4Cc4cncs4)CC3)n2)c(F)c1 [Potassium salt Type A]; slightly hygroscopic
3) N#Cc1ccc(COc2cccc(C3CCN(Cc4nc5ccc(C(=O)O)cc5n4Cc4cncs4)CC3)n2)c(F)c1 [Freeform Type C]; non-hygroscopic
4) N#Cc1ccc(COc2cccc(C3CCN(Cc4nc5ccc(C(=O)O)cc5n4Cc4cncs4)CC3)n2)c(F)c1 [Fumarate Type A]; non-hygroscopic
5) N#Cc1ccc(COc2cccc(C3CCN(Cc4nc5ccc(C(=O)O)cc5n4Cc4cncs4)CC3)n2)c(F)c1 [Tris salt Type C]; slightly hygroscopic

###

test: Solubility of Meglumine salt Type A in SGF and FaSSIF at 37° C. with adjusting pH to that of the blank medium; type: physicochemical; conditions: pH 1.8, simulated gastric fluid, thermodynamic from solid; SGF, 37° C., pH adjusted to 1.8, 2 hrs; read-out: S (solubility)
Where a name gives a salt, the structure may show the parent alone.
MEASUREMENT_LABEL: solubility at 2 h

1. N#Cc1ccc(COc2cccc(C3CCN(Cc4nc5ccc(C(=O)O)cc5n4Cc4cncs4)CC3)n2)c(F)c1 [Meglumine salt Type A]; 160 µg/mL

###

test: Hygroscopicity by DVS at 25° C.; assay type: physicochemical; conditions: 25° C./80% RH
Counter-ions that a name gives are not always drawn.
The following compounds are shown together with reported water uptake (DVS) values.
MEASUREMENT_LABEL: water uptake (DVS) (%)

1) N#Cc1ccc(COc2cccc(C3CCN(Cc4nc5ccc(C(=O)O)cc5n4Cc4cncs4)CC3)n2)c(F)c1 [Freeform Type C]; 0.12
2) N#Cc1ccc(COc2cccc(C3CCN(Cc4nc5ccc(C(=O)O)cc5n4Cc4cncs4)CC3)n2)c(F)c1 [Meglumine salt Type A]; 1.43
3) N#Cc1ccc(COc2cccc(C3CCN(Cc4nc5ccc(C(=O)O)cc5n4Cc4cncs4)CC3)n2)c(F)c1 [Tris salt Type C]; 1.44
4) N#Cc1ccc(COc2cccc(C3CCN(Cc4nc5ccc(C(=O)O)cc5n4Cc4cncs4)CC3)n2)c(F)c1 [Fumarate Type A]; 0.12
5) N#Cc1ccc(COc2cccc(C3CCN(Cc4nc5ccc(C(=O)O)cc5n4Cc4cncs4)CC3)n2)c(F)c1 [Potassium salt Type A]; 0.62

###

assay: Kinetic solubility in water and bio-relevant media (SGF, FaSSIF, FeSSIF) at 37° C.; format: physicochemical; settings: H2O, 37° C., 4 hrs; calculated by freeform
Counter-ions that a name gives are not always drawn.
MEASUREMENT_LABEL: S: Solubility (µg/mL)

1. N#Cc1ccc(COc2cccc(C3CCN(Cc4nc5ccc(C(=O)O)cc5n4Cc4cncs4)CC3)n2)c(F)c1 [Freeform Type C]; 20
2. N#Cc1ccc(COc2cccc(C3CCN(Cc4nc5ccc(C(=O)O)cc5n4Cc4cncs4)CC3)n2)c(F)c1 [Potassium salt Type A]; 3800
3. N#Cc1ccc(COc2cccc(C3CCN(Cc4nc5ccc(C(=O)O)cc5n4Cc4cncs4)CC3)n2)c(F)c1 [Tris salt Type C]; 2500
